# System: Liver
# procedure summary: Intrinsic clearance in mouse liver microsomes assessed per […]
# Type: ADME, microsome
assay metric: CLint

# chemical smiles, recorded result
rows = [
    ("COc1ccc(CN(CC(=O)N2CCC3(CC2)CNC3)c2ccc(C#N)cc2)cc1F", "< 1 µL/min"),
    ("Cc1ccc(-c2ncc(OC[C@H]3CCNC3)cc2-c2ccc(C#N)cc2)cc1", "3.43 µL/min"),
    ("COc1ccc(CN(CC(=O)N2CCC(CN)CC2)c2ccc(C#N)cc2)cc1F", "4.5 µL/min"),
]

// switching to the query compound
Query: What reported CLint corresponds to "COc1ccc(CN(CC(=O)N2CCC(N)CC2)c2ccc(C#N)cc2)cc1F" on Liver?
Response: 3.6 µL/min

====

Task for the reader: assign each of the following compounds its reported pEC50.
# system name: Lysine-specific histone demethylase 1A (Homo sapiens)
# procedure summary: Inhibition of LSD1 in human THP1 cells assessed as induction of CD86 expression after 48 hrs by flow cytometric analysis
Numbers only, as −log10 of the molar value.

# chemical smiles, pEC50
rows = [
    ("COc1ccc(CN(CC(=O)N2CCC(CN)CC2)c2ccc(C#N)cc2)cc1F", 5.39),
    ("COc1ccc(CN(CC(=O)N2CCC3(CC2)CNC3)c2ccc(C#N)cc2)cc1F", 6.17),
]

# next compound below
Query: Which pEC50 value is on record for "Cc1ccc(-c2ncc(OC[C@H]3CCNC3)cc2-c2ccc(C#N)cc2)cc1" ?
Response: 6.52

====

Would you kindly list efflux ratio for each of these compounds?
# procedure summary: Efflux ratio of apparent permeability in human Caco2 cells
# Type: ADME, cell-based
# details: Caco-2
One number for each entry.

# return efflux ratio for each item in the list
1. COc1ccc(CN(CC(=O)N2CCC3(CC2)CNC3)c2ccc(C#N)cc2)cc1F
2. COc1ccc(CN(CC(=O)N2CCC(CN)CC2)c2ccc(C#N)cc2)cc1F

Response:
[58, 58]

====

// values below are pKd; system is Lysine-specific histone demethylase 1A (Homo sapiens)
Numbers only, as −log10 of the molar value.

Here is how some compounds turned out for pKd.
# chemical smiles, pKd
records = [
    ("CC(=O)N1CCc2cc(S(=O)(=O)N(CC(=O)N3CCC(N)CC3)c3ccc(C#N)cc3)ccc21", 5.74),
    ("Cc1ccc(S(=O)(=O)N(CC(=O)N2CCC(N)CC2)c2ccc(C#N)cc2)cc1", 5.59),
    ("Cc1ccc(S(=O)(=O)N(CC(=O)N2CCC[C@@H](N)C2)c2ccc(C#N)cc2)cc1", 5.35),
]

Consider the following items and state reported pKd for each.
1. Cc1ccc(S(=O)(=O)N(CC(=O)N[C@H]2CN3CCC2CC3)c2ccc(C#N)cc2)cc1
2. N#Cc1ccc(N(CC(=O)N2CCC(CN)CC2)Cc2ccc(F)cc2)cc1

Response:
1. 5.44
2. 6.34

====

Give measured IC50 for each item. Keep answers brief.
# system name: Lysine-specific histone demethylase 1A (Homo sapiens)
# procedure summary: Inhibition of N-terminal truncated human LSD1 (151 to 852 residues) expressed in Escherichia coli after 30 mins using histone H3(1-21)K4(Me1) biotin peptide as substrate by TR-FRET assay
Answers are plain numbers, in nM.

Consider the following illustrative entries.
# chemical smiles, value units, IC50
records = [
    ("CNC1CCN(C(=O)CN(c2ccc(C#N)cc2)S(=O)(=O)c2ccc(C)cc2)CC1", "nM", 7500),
    ("Cn1ncc2cc(CN(CC(=O)N3CCC(N)CC3)c3ccc(C#N)cc3)ccc21", "nM", 620),
]

Query: Returns the measured IC50 for the input compound. Input: "N#Cc1ccc(N(CC(=O)N2CCC(CN)CC2)Cc2ccc(Cl)cc2)cc1"
Response: 400
